Test system: ANKA strain of P. berghei
TEST PROTOCOL: single dose STI in vivo screen in infected mice
Set-up: species or system Plasmodium berghei
CONDITION SET: single 10 mg/kg sc in 3% ethanol and 7% Tween 80; untreated control 5.6 ± 0.3
METRIC NAME: Survival (days) sc
One number for each entry, in days.

1. CCOC(=O)c1cccc([C@H]2CC[C@]3(CC2)OOC2(O3)C3CC4CC(C3)CC2C4)c1 (some centres unmarked)	5.7
2. COC(=O)c1ncn(C[C@H]2CC[C@]3(CC2)OOC2(O3)C3CC4CC(C3)CC2C4)n1 (some centres unmarked)	6.3

Working through the 2 compounds below one at a time, give Survival (days) sc for each.
1. COC(=O)c1ncnn1C[C@H]1CC[C@]2(CC1)OOC1(O2)C2CC3CC(C2)CC1C3 (some centres unmarked)
2. C1CC1CNC1CCC2(CC1)OOC1(O2)C2CC3CC(C2)CC1C3 (centres unmarked)

8.3
8.7

Working through the 4 compounds below one at a time, give Survival (days) sc for each.
1. O=[N+]([O-])c1cccc(C2(c3cccc([N+](=O)[O-])c3)OOC3(O2)C2CC4CC(C2)CC3C4)c1 (centres unmarked)
2. O=C(O)CCC(=O)N[C@H]1CC[C@]2(CC1)OOC1(O2)C2CC3CC(C2)CC1C3 (some centres unmarked)
3. COCC(=O)N(Cc1ccccc1)C1CCC2(CC1)OOC1(O2)C2CC3CC(C2)CC1C3 (centres unmarked)
4. CC1(C)COC2(CCC3(CC2)OOC2(O3)C3CCCC2CCC3)OC1 (centres unmarked)

6.3
5.7
9.7
5.3
